- TESTED ON: T1, caspase-10 (UniProt Q92851 220-521, limits assumed)
- T1 sequence (looked up): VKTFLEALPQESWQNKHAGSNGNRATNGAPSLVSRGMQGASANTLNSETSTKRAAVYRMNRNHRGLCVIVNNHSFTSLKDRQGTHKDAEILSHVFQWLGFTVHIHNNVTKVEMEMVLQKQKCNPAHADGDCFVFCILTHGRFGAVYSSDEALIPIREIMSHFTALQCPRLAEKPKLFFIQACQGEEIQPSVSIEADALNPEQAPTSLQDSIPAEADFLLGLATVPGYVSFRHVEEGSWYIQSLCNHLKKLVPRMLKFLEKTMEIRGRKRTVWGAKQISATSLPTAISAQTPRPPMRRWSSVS
- TEST DESCRIPTION: Ki printed in running text; no assay described
MEASUREMENT LABEL: pKi
Scale note: pKi = -log10(concentration in M).

Ac-DEVD-aldehyde [Ac-DEVD-CHO, N-(N-Ac-Asp-Glu-Val)-3-amino-4-oxobutanoic acid]	7.92

// next entry
Ask | Read off the recorded pKi for Ac-YVAD-aldehyde [Ac-YVAD-CHO, N-(N-Ac-Tyr-Val-Ala)-3-amino-4-oxobutanoic acid]
Reply | 6.39
